experiment: Stability of peptides in simulated intestinal fluid (pH 7.5); format: in vitro ADME; details: simulated gi fluid, pH 7.5
Where a SMILES comes first, the peptide text is derived from it. [ ]: non-standard residue; d: D form. ξ: configuration not given here. ξBip(2'-Et-4'-OMe) = CCc1cc(OC)ccc1-c1ccc(CC(N)C(=O)O)cc1; ξαMePhe(2,6-F2) = CC(N)(Cc1c(F)cccc1F)C(=O)O; ξαMePhe(2-F) = CC(N)(Cc1ccccc1F)C(=O)O; hhPhe = N[C@@H](CCCc1ccccc1)C(=O)O; hArg = N=C(N)NCCCC[C@H](N)C(=O)O; Nle = CCCC[C@H](N)C(=O)O; Ac5c = NC1(C(=O)O)CCCC1; Ac3c = NC1(C(=O)O)CC1; Aib = CC(C)(N)C(=O)O
experimental_endpoint: half-life (t1/2) in simulated intestinal fluid

molecule	measured_result
CCCC[C@H](NC(=O)C(C)(Cc1c(F)cccc1F)NC(=O)[C@H](CCC(N)=O)NC(=O)[C@@H](NC(=O)[C@H](CCC(=O)O)NC(=O)C(C)(C)NC(=O)[C@@H](NC(=O)C1(N)CCCC1)C(C)C)[C@@H](C)CC)C(=O)N[C@@H](Cc1c[nH]cn1)C(=O)N[C@@H](CCC(N)=O)C(=O)N[C@@H](CCCCNC(=N)N)C(=O)NC(C)(C)C(=O)NC(C)(Cc1c(F)cccc1F)C(=O)NC(C)(Cc1ccccc1F)C(N)=O (some centres unmarked) [Seq. ID. 220] (H-[Ac5c]V[Aib]EIQ[ξαMePhe(2,6-F2)][Nle]HQ[hArg][Aib][ξαMePhe(2,6-F2)][ξαMePhe(2-F)]-NH2)	(6) h
CCCC[C@H](NC(=O)[C@H](CC(C)C)NC(=O)[C@H](CCC(N)=O)NC(=O)[C@@H](NC(=O)[C@H](CCC(=O)O)NC(=O)C1(NC(=O)[C@@H](NC(=O)C2(N)CC2)C(C)C)CC1)[C@@H](C)CC)C(=O)N[C@@H](Cc1c[nH]cn1)C(=O)N[C@@H](CCC(N)=O)C(=O)N[C@@H](CCCCNC(=N)N)C(=O)N[C@@H](C)C(=O)N[C@@H](CCCCN)C(=O)NC(Cc1ccc(-c2ccc(OC)cc2CC)cc1)C(=O)N[C@@H](CCCc1ccccc1)C(N)=O (some centres unmarked) [Seq. ID. 610] (H-[Ac3c]V[Ac3c]EIQL[Nle]HQ[hArg]AK[ξBip(2'-Et-4'-OMe)][hhPhe]-NH2)	(6) h

----------
assay: Stability of peptides in simulated gastric fluid (pH 1.5; HCl, NaCl and Pepsin); type: in vitro ADME; conditions: simulated gi fluid, pH 1.5
experimental_endpoint: half-life (min)
# output: bare number, implied unit min

Problem: Reported half-life, compound CCCCC(C)(NC(=O)[C@H](CC(C)C)NC(=O)[C@H](CCC(N)=O)NC(=O)[C@@H](NC(=O)[C@H](CCC(=O)O)NC(=O)C(C)(C)NC(=O)[C@@H](NC(=O)C1(NC(=O)[C@@H](N)C(C)C)CCCC1)C(C)C)[C@@H](C)CC)C(=O)N[C@@H](Cc1c[nH]cn1)C(=O)N[C@@H](CCC(N)=O)C(=O)N[C@@H](CCCCNC(=N)N)C(=O)N[C@@H](C)C(=O)N[C@@H](CCCCNC(=N)N)C(=O)NC(Cc1ccc(-c2ccc(OC)cc2CC)cc1)C(=O)NC(C)(CCCc1ccccc1)C(N)=O (single isomer, unassigned) : ____
Result: 30

Source of measurements: patent US8383581B2
